Reported IC50 values for the following molecules.
System: PLC/PRF/5 cells
experiment_notes: Cell viability assay (Cell Titer-Glo)
Assay type: cell-based
assay_setup: Homo sapiens, 72 h, 95% confidence interval in square brackets
Reply numerically in µM, unit not repeated.

Worked examples, 3 molecules total:
CC(C)=CCC/C(C)=C/CC/C(C)=C/CC/C(C)=C/CC1=C(C)C(=O)c2ccccc2C1=O [MK-4, menaquinone-4, reference compound] ... 188
CC(C)=CCC/C(C)=C/CC/C(C)=C/CC/C(C)=C/Cc1c(C)c(OC(=O)CCC(=O)O)c2ccccc2c1OC(=O)CCC(=O)O [MKH-SUC, Menahydroquinone-4 1,4-bis hemisuccinate] ... 26.6
CC(C)=CCC/C(C)=C/CC/C(C)=C/CC/C(C)=C/Cc1c(C)c(OC(=O)CN(C)C)c2ccccc2c1OC(=O)CN(C)C ... 33.4

Here is the next item to consider.
Give PLC/PRF/5 cells IC50 for CC(=O)Oc1c(C)c(C/C=C(\C)CC/C=C(\C)CC/C=C(\C)CCC=C(C)C)c(OC(C)=O)c2ccccc12 [MKH-ACT, Menahydroquinone-4 1,4-bis acetate]
152
